MEASUREMENT_TARGET: HeLa cell extract proteins (Homo sapiens, UniProt P08579)
Construct: endogenous in cells; host or cells: HeLa cell extract
Sequence (P08579 whole entry): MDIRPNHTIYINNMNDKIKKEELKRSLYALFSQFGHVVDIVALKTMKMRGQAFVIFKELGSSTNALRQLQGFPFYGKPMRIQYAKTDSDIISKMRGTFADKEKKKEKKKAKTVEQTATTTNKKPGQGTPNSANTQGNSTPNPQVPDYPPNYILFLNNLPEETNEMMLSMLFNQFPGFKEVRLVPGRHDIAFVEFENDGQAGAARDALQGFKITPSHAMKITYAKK
Type: binding
CONDITION_DETAILS: HeLa; protein SNRPB2
# reported fold changes relative to vehicle control; entries follow
Returns: the value as a bare number; no unit string appended.

In [3]: df
Out[3]:
                                   molecule                        measurement_target  numeric_value
0  NCCCNc1ccc(C(=O)NC(CCC(=O)O)C(=O)O)cc1 (stereo not drawn)  HeLa cell extract proteins (Homo sapiens, UniProt P08579)           0.77

Requested read-out: fold changes relative to vehicle control. Entry: Nc1nc2cccc(-c3ccccc3)c2n1Cc1ccc(Cl)c(Cl)c1
0.76

Which fold changes relative to vehicle control is reported for this molecule? NCCOCCOCC(=O)Nc1nc2ncc(CNc3ccc(C(=O)NC(CCC(=O)O)C(=O)O)cc3)nc2c(=O)[nH]1 (stereo not drawn)
0.93

Fill blank: measured fold changes relative to vehicle control of the molecule CCCCCCOc1cccc(Cc2cnc(N)nc2N)c1 is ____.
1.43

Entry CCCCCCOc1ccc(Cc2cnc(N)nc2N)cc1 : reported fold changes relative to vehicle control = ?
1.22

Data request, read-out fold changes relative to vehicle control, for Nc1nc2c(c(=O)[nH]1)N(C=O)C(CNc1ccc(C(=O)N[C@@H](CCC(=O)O)C(=O)O)cc1)CN2 (stereo partly drawn)
1

* * *

Listed next: entries and their corresponding percentage of competition from bead binding.
Tested on: HYPOTHETICAL PROTEIN, CONSERVED (TB427.03.2670)
EXPERIMENT_DESCRIPTION: Multitargeted bead mixture competition
Assay type: binding
CONDITION_DETAILS: free ligand 100 μM, T. brucei lysate
Please state the figure in %; there is no need to write the unit.

>>> print(df.to_string())
                             compound  result_unit  numeric_value
0  Cc1ccc2nc(N)[nH]c(=O)c2c1Sc1ccncc1            %             11

I'm curious: which percentage of competition from bead binding was measured for Nc1nc(O)c2c(CCc3ccccc3)c[nH]c2n1 tested on HYPOTHETICAL PROTEIN, CONSERVED (TB427.03.2670)?
54

// map CN(Cc1cnc2nc(N)nc(N)c2n1)c1ccc(C(=O)N[C@@H](CCC(=O)O)C(=O)O)cc1 [MTX, methotrexate] to recorded percentage of competition from bead binding (system: HYPOTHETICAL PROTEIN, CONSERVED (TB427.03.2670))
50

Please provide the recorded percentage of competition from bead binding for Nc1nc2cccc(-c3ccccc3)c2n1Cc1ccc(Cl)c(Cl)c1 , tested on HYPOTHETICAL PROTEIN, CONSERVED (TB427.03.2670).
62

* * *

MEASUREMENT_TARGET: HeLa cell extract proteins (Homo sapiens)
Construct: endogenous in cells; host or cells: HeLa cell extract
Sequence (P49368 1-545): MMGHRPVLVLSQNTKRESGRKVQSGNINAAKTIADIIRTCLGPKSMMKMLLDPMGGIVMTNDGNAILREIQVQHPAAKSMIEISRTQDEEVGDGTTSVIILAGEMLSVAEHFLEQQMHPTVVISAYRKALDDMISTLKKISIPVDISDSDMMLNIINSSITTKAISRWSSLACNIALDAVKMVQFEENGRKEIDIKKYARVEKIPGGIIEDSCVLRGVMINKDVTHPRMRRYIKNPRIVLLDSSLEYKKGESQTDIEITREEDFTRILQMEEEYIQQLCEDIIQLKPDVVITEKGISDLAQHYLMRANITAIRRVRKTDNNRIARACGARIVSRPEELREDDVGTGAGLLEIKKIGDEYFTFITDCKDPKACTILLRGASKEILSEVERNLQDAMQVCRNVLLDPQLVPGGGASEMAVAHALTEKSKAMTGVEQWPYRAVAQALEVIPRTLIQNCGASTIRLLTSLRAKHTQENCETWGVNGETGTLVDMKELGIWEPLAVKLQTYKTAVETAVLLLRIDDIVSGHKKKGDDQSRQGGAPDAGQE
Format: binding
CONDITION_DETAILS: protein CCT3; HeLa
READOUT_LABEL: fold changes relative to vehicle control

Known results for compounds:
>>> df
                                   compound  result
0  NCCOCCOCC(=O)Nc1nc2ncc(CNc3ccc(C(=O)NC(CCC(=O)O)C(=O)O)cc3)nc2c(=O)[nH]1 (stereo not drawn) [compound 6]    1.16
1  CCCCCCOc1cccc(Cc2cnc(N)nc2N)c1 [compound 2]    1.72
2  Nc1nc2cccc(-c3ccccc3)c2n1Cc1ccc(Cl)c(Cl)c1 [compound 3]    1.06
3  Nc1nc2c(c(=O)[nH]1)N(C=O)C(CNc1ccc(C(=O)N[C@@H](CCC(=O)O)C(=O)O)cc1)CN2 (stereo partly drawn) [LEU, leucovorin]    0.88
4  NCCCNc1ccc(C(=O)NC(CCC(=O)O)C(=O)O)cc1 (stereo not drawn) [compound 7]       1

Shift focus to the following entry.
# input compound: CCCCCCOc1ccc(Cc2cnc(N)nc2N)cc1 [compound 1] ; wanted: its fold changes relative to vehicle control
1.22

Attribution: paper PMC6199744
